Provenance of the data: PubChem BioAssay (NCI)

Entries and their growth inhibition values follow.
assay comment: NCI Yeast Anticancer Drug Screen. Data for the bub3 strain (AID 167)
condition info: S. cerevisiae bub3 mutant strain, at 50.0 µM (retest, dose inferred, filed as 5.0), hits give high values
This is part of a sample that, as a whole, favours compounds with a hit. Of some 79,000 tested, about 15% had one in any assay.

compound	growth inhibition, %
COc1cc2c(c(OC)c1OC)-c1ccc(SC)c(=O)cc1C(NC(=O)c1ccccc1)CC2 (stereo not drawn)	63
Oc1ccc2ccccc2c1Cc1c(O)ccc2ccccc12	95
COc1ccc(COc2ccc(C(=O)CCN3CCOCC3)cc2)cc1	80
CCCCN(C(=O)CCl)c1ccccc1	-16
N=C1N(c2ccccc2)C(=S)C(=Nc2ccccc2)N1c1ccccc1	99
c1ccc(CSC(SCc2ccccc2)(c2ccccc2)c2ccccc2)cc1	83
Cc1ccc(NCCN(C)C)c2c(=O)c3cc(O)ccc3sc12	98
c1ccc2c(c1)[nH]c1c(N3CCOCC3)nnc(N3CCOCC3)c12	-1
CCCCCCCCC(Sc1n[nH]c(=O)[nH]c1=O)C(=O)OCC (stereo not drawn)	88
CCOC(=O)c1ccc(NCc2ccc3ccccc3n2)cc1	55
Cc1ccc(S(=O)(=O)N/N=C2/C(=O)c3cccc4cccc2c34)cc1	55
N#CNC1=NCOCN1	-3
C[N+]1(C)CCC(c2ccccc2)(c2ccccc2)C(=O)C1	-27
CCCCCCCCCCCCCCCC[N+](C)(C)Cc1cnc[nH]1	99
CCOC(=O)C(Cc1c[nH]c2cc([N+](=O)[O-])ccc12)NS(=O)(=O)c1ccc2ccccc2c1 (stereo not drawn)	98
Cc1ccnc2c1c(=O)c1ccccc1n2C	12
O=[N+]([O-])c1cccc2nc3ccccc3c(NCCN(CCO)CCO)c12	99
O=C1c2cccc(NCCCNCCO)c2C(=O)c2cccc(NCCCNCCO)c21	39
Nc1nc(-c2ccccn2)cc2ccccc12	61
Fc1ccc(/C=C2\COCC3=C2NC(=S)NC3c2ccc(F)cc2)cc1 (stereo not drawn)	100
O=C1C=C(O)c2ccccc2C1=O.[Ag]	99
Nc1ccc([N+](=O)[O-])c(S(=O)(=O)O)c1	-57
Cc1ccc(C(C)C)c2c1CN(CCN1COc3c(C(C)C)ccc(C)c3C1)CO2	-2
COC1/C=C/OC2(C)Oc3c(C)c(O)c4c(c3C2=O)C(=O)C=C(NC(=O)/C(C)=C\C=C\C(C)C2OC(C)(C)OC(C2C)C(C)C(OC(C)=O)C1C)C4=O (stereo not drawn)	74
C=CCOC(=O)c1ccc(C(=O)OCC=C)cc1	-53
COc1ccc(Oc2ccccc2N)cc1	93
Oc1ccc(Cc2ccccc2)cc1	6
OC1CCC(O)CC1 (stereo not drawn)	4
Cc1nc2cc(Cl)ccc2n1-c1ccccc1	97
COc1ccc(C2SC(N)=Nc3c2c(C)nn3C(=O)c2ccc(Cl)cc2)cc1OC (stereo not drawn)	15
CN(C)c1ccc(/C=C/c2ccnc3ccccc23)c(Cl)c1	43
Nc1ccc(Cn2ccc3c4c(N)nc(N)nc4ccc32)cc1	84
O=C(NO)c1cccnc1	-2
O=C(Nc1ccc(Cl)cc1)c1ccccc1O	13
COC1C(O)C(C)OC(OC2C(Oc3cccc4c(O)c5c(=O)oc6ccc(C)c7c(=O)oc(c34)c5c67)OC(C)C3O[C@H](c4ccccc4)OC32)C1O (stereo partly drawn)	95
CC(c1ccccc1)c1ccc(O)cc1 (stereo not drawn)	51
CCOC(=O)[C@H]1Nc2ccc([N+](=O)[O-])cc2C2c3ccccc3CC21 (stereo partly drawn)	89
CS(=O)(=O)OCCN(CCOS(C)(=O)=O)c1ccc(C=Nc2ccc(-c3csc(Cc4ccccc4)n3)cc2)c(Cl)c1	78
Nc1ncnc(N)c1N=O	54
CCCCCCCCCCCCN1C(=O)[N+](C)(C)N=C1[O-]	34
CCCCCCCCCCCCCCCCOP(=O)(O)OCC(NC(C)=O)C(=O)O (stereo not drawn)	97
O=C(NN1CCOC1=O)OCCCl	2
COC(=O)CSC(=S)N1CCOCC1	-5
Nc1cc2ccccc2cc1Br	52
O=C(OC(=Nc1ccccc1)N(c1ccccc1)c1ccccc1)c1ccccc1	34
CC(CCc1nc2ccccc2s1)(c1ccc(O)cc1)c1ccc(O)cc1	99
COc1ccc(/C=C/NC=O)cc1	6
CCC1CCCC(=O)C1 (stereo not drawn)	2
